system: goosegrass (Eleusine indica); experiment: Test C pre/postemergence; type: in vivo; conditions: Preemergence, 125 g ai/ha; scale 0 to 100
The molecules listed here are annotated with their Plant response rating, Goosegrass.

{"structure.string": "CCCOC(=O)c1nc(C2CC2)nc(N)c1Br", "measured.target": "goosegrass (Eleusine indica)", "Plant response rating, Goosegrass": 0}
{"structure.string": "COCc1nc(C2CC2)nc(N)c1Br", "measured.target": "goosegrass (Eleusine indica)", "Plant response rating, Goosegrass": 0}
{"structure.string": "Nc1nc(-c2ccc(Cl)cc2)nc(C(=O)[O-])c1Cl.[Na+]", "measured.target": "goosegrass (Eleusine indica)", "Plant response rating, Goosegrass": 30}
{"structure.string": "COC(=O)CNc1nc(C2CC2)nc(C(=O)OC)c1Br", "measured.target": "goosegrass (Eleusine indica)", "Plant response rating, Goosegrass": 0}

----------
tested on: crabgrass (Digitaria sanguinalis); assay: Test C pre/postemergence; format: in vivo; conditions: Postemergence, 500 g ai/ha; scale 0 to 100

{"compound": "CNN=Cc1nc(C2CC2)nc(N)c1Br", "measured.target": "crabgrass (Digitaria sanguinalis)", "Plant response rating, Crabgrass": 95}
{"compound": "CN(C)N=Cc1nc(C2CC2)nc(N)c1Br", "measured.target": "crabgrass (Digitaria sanguinalis)", "Plant response rating, Crabgrass": 80}
{"compound": "CCOC(=O)c1nc(-c2ccc(Cl)cc2)nc(N)c1Br", "measured.target": "crabgrass (Digitaria sanguinalis)", "Plant response rating, Crabgrass": 60}
{"compound": "COC(=O)c1nc(C2CC2C)nc(N)c1Br (stereo not shown)", "measured.target": "crabgrass (Digitaria sanguinalis)", "Plant response rating, Crabgrass": 20}

----------
test system: soybean (Glycine max); test: Test C pre/postemergence; format: in vivo; details: Postemergence, 500 g ai/ha; scale 0 to 100
The compounds listed here are annotated with their Plant response rating, Soybean.
readout.type: Plant response rating, Soybean

{"compound": "Nc1nc(C2CC2)nc(C=NO)c1Br [Compound 27]", "readout.type": "Plant response rating, Soybean", "endpoint.result": 95}
{"compound": "CCOC(=O)c1nc(-c2ccc(Cl)cc2)nc(N)c1Br [Compound 37]", "readout.type": "Plant response rating, Soybean", "endpoint.result": 100}
{"compound": "CN(C)N=Cc1nc(C2CC2)nc(N)c1Br [Compound 50]", "readout.type": "Plant response rating, Soybean", "endpoint.result": 100}
{"compound": "COC(=O)c1nc(C2CC2C)nc(N)c1Br (stereo not shown) [Compound 28]", "readout.type": "Plant response rating, Soybean", "endpoint.result": 95}

----------
tested on: giant foxtail (Setaria faberi); assay: Test A pre/postemergence; format: in vivo; settings: Setaria faberi, pre-emergence, 240 h, Preemergence, 125 g ai/ha; 0 to 100 scale where 0 is no effect and 100 is complete control; approximately ten days; read-out: Plant response rating, Foxtail, Giant
The compounds listed here are annotated with their pest or weed control at 125 g/ha.

{"structure.string": "NC(=O)c1nc(C2CC2)nc(N)c1Br", "pest or weed control at 125 g/ha": "0%"}
{"structure.string": "COC(=O)c1nc(-c2ccc(Cl)cc2)nc(N)c1Cl", "pest or weed control at 125 g/ha": "0%"}
{"structure.string": "CCOC(=O)c1nc(-c2ccc(Cl)cc2)nc(N)c1Cl", "pest or weed control at 125 g/ha": "15%"}
{"structure.string": "NC(=O)c1nc(C2CC2)nc(N)c1Cl", "pest or weed control at 125 g/ha": "0%"}
{"structure.string": "Nc1nc(-c2ccc(Cl)cc2)nc(C(=O)O)c1Cl", "pest or weed control at 125 g/ha": "40%"}

Cited source for all entries: patent US8802597B2
